Origin of values: patent US20240109962A1

- TARGET_OF_ASSAY: T1, recombinant human LILRB2 protein (human, UniProt Q8N423 22-460, limits assumed)
- T1 construct: also called recombinant LILRB2 protein
- PROCEDURE_SUMMARY: ELISA, coated recombinant human LILRB2
- Set-up: unit not given here
# Bmax annotations
Answer as a number with no unit attached.

# annotated cases, reported Bmax shown
- Antibody 2E1_GA4 (antibody, V domains shown) VH: EVQLVESGGGLVQPGGSLRLSCAVSGYSITSGYAWNWIRQAPGKGLEWVAYISYDGNNNYNPSLKNRFTISRDTSKNTFYLQMNSLRAEDTAVYYCAREESTMITTAWFAYWGQGTLVTVSS VL: DIQMTQSPSSLSASVGDRVTITCVASENIYSNLAWYQQKPGKAPKLLIYGATNLASGVPSRFSGSGSGTDYTLTISSLQPEDFATYYCQHFWDTPYTFGQGTKVEIK: 1.61
- Antibody 2E1_FD4 (antibody, V domains shown) VH: EVQLVESGGGLVQPGGSLRLSCAVSGYSITSGYYWNWIRQAPGKGLEWVAYISYDGNPNYNPSLKNRFTISRDTSKNTFYLQMNSLRAEDTAVYYCAREESTMITTAWFAYWGQGTLVTVSS VL: DIQMTQSPSSLSASVGDRVTITCRASENIYSNLAWYQQKPGKAPKLLIYGATNLASGVPSRFSGSGSGTDYTLTISSLQPEDFATYYCQHFWDTPYTFGQGTKVEIK: 1.14
- Antibody 2E1_GF9 (antibody, V domains shown) VH: EVQLVESGGGLVQPGGSLRLSCAVSGYSITSGYSWNWIRQAPGKGLEWVAYISYDGNNNYNPSLKNRFTISRDTSKNTFYLQMNSLRAEDTAVYYCAREESTMITTAWFAYWGQGTLVTVSS VL: DIQMTQSPSSLSASVGDRVTITCRASETIYSNLAWYQQKPGKAPKLLIYGATNLAAGVPSRFSGSGSGTDYTLTISSLQPEDFATYYCQHFWDTPYTFGQGTKVEIK: 1.14
- Antibody 2E1_FH2 (antibody, V domains shown) VH: EVQLVESGGGLVQPGGSLRLSCAVSGYSITSGYYWNWIRQAPGKGLEWVASISYDGNNNYNPSLKNRFTISRDTSKNTFYLQMNSLRAEDTAVYYCAREESTMITTAWFAYWGQGTLVTVSS VL: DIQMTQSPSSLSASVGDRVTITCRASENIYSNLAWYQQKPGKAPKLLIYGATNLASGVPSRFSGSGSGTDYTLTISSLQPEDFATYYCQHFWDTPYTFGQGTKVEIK: 0.989
- Antibody 2E1_GH11 (antibody, V domains shown) VH: EVQLVESGGGLVQPGGSLRLSCAVSGYSITSGYYWWWIRQAPGKGLEWVAYISYDGNNNYNPSLKNRFTISRDTSKNTFYLQMNSLRAEDTAVYYCAREESTMITTAWFAYWGQGTLVTVSS VL: DIQMTQSPSSLSASVGDRVTITCNASENIYSNLAWYQQKPGKAPKLLIYGATNLASGVPSRFSGSGSGTDYTLTISSLQPEDFATYYCQHFWDTPYTFGQGTKVEIK: 1.58

Problem: Can you look up the measured Bmax of Antibody 2E1_FG4 (antibody, V domains shown) VH: EVQLVESGGGLVQPGGSLRLSCAVSGYSITSGYYWNWIRQAPGKGLEWVAYISYDGNVNYNPSLKNRFTISRDTSKNTFYLQMNSLRAEDTAVYYCAREESTMITTAWFAYWGQGTLVTVSS VL: DIQMTQSPSSLSASVGDRVTITCRASENIYSNLAWYQQKPGKAPKLLIYGATNLASGVPSRFSGSGSGTDYTLTISSLQPEDFATYYCQHFWDTPYIFGQGTKVEIK for me?
Solution: 1.4
